Target: Carbonic anhydrase 4 (Bos taurus)
Assay: In vitro […] activity against bovine carbonic anhydrase IV (bCA IV) purified from lung microsomes.
So I've got a bunch of compounds here, and I need their Ka values.
Expressed in µM, but write only the number.

In: Record O=S(=O)(NCCc1c[nH]cn1)C(F)(F)C(F)(F)C(F)(F)C(F)(F)F : what is its Ka with Carbonic anhydrase 4 (Bos taurus)?
Out: 0.05

In: Record O=S(=O)(NCCc1c[nH]cn1)C(F)(F)F : what is its Ka with Carbonic anhydrase 4 (Bos taurus)?
Out: 0.15

In: Record O=C(O)c1ccc(S(=O)(=O)NCCc2c[nH]cn2)cc1 : what is its Ka with Carbonic anhydrase 4 (Bos taurus)?
Out: 0.1

In: Record O=C(NCCc1c[nH]cn1)NS(=O)(=O)c1ccc(Cl)cc1 : what is its Ka with Carbonic anhydrase 4 (Bos taurus)?
Out: 0.01

In: Record Cc1cc(C)c(S(=O)(=O)NCCc2c[nH]cn2)c(C)c1 : what is its Ka with Carbonic anhydrase 4 (Bos taurus)?
Out: 5.9

In: Record O=S(=O)(Cc1ccccc1)NCCc1c[nH]cn1 : what is its Ka with Carbonic anhydrase 4 (Bos taurus)?
Out: 5.4

In: Record Cc1ccc(S(=O)(=O)NC(=O)NCCc2c[nH]cn2)cc1 : what is its Ka with Carbonic anhydrase 4 (Bos taurus)?
Out: 0.02

In: Record CN(C)c1cccc2c(S(=O)(=O)NCCc3c[nH]cn3)cccc12 : what is its Ka with Carbonic anhydrase 4 (Bos taurus)?
Out: 3.2

In: Record CC(=O)Nc1ccc(S(=O)(=O)NCCc2c[nH]cn2)cc1 : what is its Ka with Carbonic anhydrase 4 (Bos taurus)?
Out: 6

In: Record O=S(=O)(NCCc1c[nH]cn1)c1cccs1 : what is its Ka with Carbonic anhydrase 4 (Bos taurus)?
Out: 1.1

In: Record O=[N+]([O-])c1ccc(S(=O)(=O)NCCc2c[nH]cn2)cc1Cl : what is its Ka with Carbonic anhydrase 4 (Bos taurus)?
Out: 1.4

---

Target: UniProtKB Q95323
Sequence (Q95323 whole entry): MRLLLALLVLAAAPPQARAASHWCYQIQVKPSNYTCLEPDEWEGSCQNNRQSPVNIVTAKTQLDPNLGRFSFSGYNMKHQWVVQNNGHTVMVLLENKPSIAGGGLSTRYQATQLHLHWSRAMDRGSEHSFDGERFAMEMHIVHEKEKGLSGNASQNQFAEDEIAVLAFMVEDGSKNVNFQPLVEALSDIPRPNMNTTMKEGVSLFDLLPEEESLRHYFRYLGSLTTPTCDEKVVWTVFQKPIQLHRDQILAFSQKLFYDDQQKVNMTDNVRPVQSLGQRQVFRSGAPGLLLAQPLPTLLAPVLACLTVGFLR
Test: In vitro […] activity against bovine carbonic anhydrase IV (bCA IV) purified from lung microsomes.
Measured Quantity: Ka (µM)
Expressed in µM, but write only the number.

In: Given O=S(=O)(NCCc1c[nH]cn1)c1ccc(Br)cc1 , state its recorded Ka.
Out: 3

In: Given O=C(O)c1cccc(S(=O)(=O)NCCc2c[nH]cn2)c1 , state its recorded Ka.
Out: 0.07

In: Given O=[N+]([O-])c1ccc(S(=O)(=O)NCCc2c[nH]cn2)cc1 , state its recorded Ka.
Out: 1.8

In: Given O=S(=O)(NCCc1c[nH]cn1)C(Cl)(Cl)Cl , state its recorded Ka.
Out: 3.6

In: Given O=S(=O)(NCCc1c[nH]cn1)c1ccc(I)cc1 , state its recorded Ka.
Out: 3.2

In: Given NCCc1c[nH]cn1 , state its recorded Ka.
Out: 41

In: Given Nc1ccc(S(=O)(=O)NCCc2c[nH]cn2)cc1 , state its recorded Ka.
Out: 4.1

In: Given O=S(=O)(NCCc1c[nH]cn1)c1ccccc1 , state its recorded Ka.
Out: 5

In: Given O=S(=O)(NCCc1c[nH]cn1)c1cc(Cl)ccc1Cl , state its recorded Ka.
Out: 0.1

In: Given O=S(=O)(NCCc1c[nH]cn1)c1cccc2ccccc12 , state its recorded Ka.
Out: 3.6

In: Given O=S(=O)(NCCc1c[nH]cn1)c1ccc(F)cc1 , state its recorded Ka.
Out: 2.4

In: Given CN(C)S(=O)(=O)NCCc1c[nH]cn1 , state its recorded Ka.
Out: 5.3

In: Given O=C(O)c1ccccc1S(=O)(=O)NCCc1c[nH]cn1 , state its recorded Ka.
Out: 0.12

In: Given O=S(=O)(NCCc1c[nH]cn1)c1ccc2ccccc2c1 , state its recorded Ka.
Out: 3.5

In: Given Cc1ccccc1S(=O)(=O)NC(=O)NCCc1c[nH]cn1 , state its recorded Ka.
Out: 0.03

In: Given Cc1ccc(S(=O)(=O)NCCc2c[nH]cn2)cc1 , state its recorded Ka.
Out: 7

In: Given O=C(O)c1c(Br)c(Br)c(Br)c(Br)c1S(=O)(=O)NCCc1c[nH]cn1 , state its recorded Ka.
Out: 0.1

In: Given O=[N+]([O-])c1ccccc1S(=O)(=O)NCCc1c[nH]cn1 , state its recorded Ka.
Out: 1.6

In: Given O=C(NCCc1c[nH]cn1)NS(=O)(=O)c1ccc(F)cc1 , state its recorded Ka.
Out: 0.02

In: Given O=S(=O)(NCCc1c[nH]cn1)C(F)(F)C(F)(F)C(F)(F)C(F)(F)C(F)(F)C(F)(F)C(F)(F)C(F)(F)F , state its recorded Ka.
Out: 0.03

In: Given O=S(=O)(NCCc1c[nH]cn1)c1cc(Cl)cc(Cl)c1O , state its recorded Ka.
Out: 0.09

In: Given COc1ccc(S(=O)(=O)NCCc2c[nH]cn2)cc1 , state its recorded Ka.
Out: 6.5

In: Given CC1(C)C2CCC1(CS(=O)(=O)NCCc1c[nH]cn1)C(=O)C2 (stereo unspecified) , state its recorded Ka.
Out: 5.4

In: Given O=[N+]([O-])c1cccc(S(=O)(=O)NCCc2c[nH]cn2)c1 , state its recorded Ka.
Out: 1.5

In: Given O=S(=O)(NCCc1c[nH]cn1)c1ccc(Cl)cc1 , state its recorded Ka.
Out: 2.5

In: Given O=S(=O)(NCCc1c[nH]cn1)c1c(F)c(F)c(F)c(F)c1F , state its recorded Ka.
Out: 0.04

The reported measurements were obtained from ChEMBL document CHEMBL1131800.
